Test system: THRa homodimer (NR concentration 90 nM)
test-method-notes: PBM binding z-score (relative to random genomic background probes); higher = stronger binding; sequences stand for … in GC…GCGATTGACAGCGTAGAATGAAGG
endpoint-name: PBM binding z-score
Numbers only.

For orientation, consider the following solved cases.
Ask: Kindly state the measured PBM binding z-score obtained for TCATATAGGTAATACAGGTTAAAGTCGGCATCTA with THRa homodimer (NR concentration 90 nM).
Reply: 0.204

Ask: Please tell me: PBM binding z-score of CAAACTGGGTCACAGAGGTCAAAGTCCGTGCGTA , system THRa homodimer (NR concentration 90 nM)?
Reply: 2.19

Ask: Hello, I am looking for reported PBM binding z-score with THRa homodimer (NR concentration 90 nM) for CTACCAAGGTGAACAAGGTCGTTGACTACTATTC . Could you help?
Reply: 2

Quick request: PBM binding z-score for each listed item, please.
1. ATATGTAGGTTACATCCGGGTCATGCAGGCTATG
2. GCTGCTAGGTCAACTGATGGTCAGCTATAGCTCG
3. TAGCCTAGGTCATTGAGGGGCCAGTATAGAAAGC
4. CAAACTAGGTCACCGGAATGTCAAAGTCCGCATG
5. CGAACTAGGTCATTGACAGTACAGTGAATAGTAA
6. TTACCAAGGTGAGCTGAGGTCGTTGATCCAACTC
7. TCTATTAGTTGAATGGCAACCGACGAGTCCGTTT
8. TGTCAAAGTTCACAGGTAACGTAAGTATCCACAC

Reply:
2.29
1.11
0.714
2.04
0.979
1.88
0.299
-0.165

Ask: THRa homodimer (NR concentration 90 nM) / PBM binding z-score / CGTCCAAGGTAATAGGAGGTCAGTGAAGACAGAT : value?
Reply: 1.27
